Sourced from PubChem BioAssay (NCI)

System: HCC-2998 colon
Experiment: NCI-60 one-dose screen, 48 h (100 = growth as untreated, 0 = no growth, -100 = all killed)
Settings: 10 µM unless noted
About 83,000 compounds went through this panel and 20% of them were active in at least one assay; those are over-represented in the sample as a whole.
growth for assorted molecules
Report only the number, with the unit % understood.

// known answers, use as guide
COc1ccc([C@H]2[C@@H](F)C(=O)N2c2cc(OC)c(OC)c(OC)c2)cc1F 32.9
O=C(NC[C@H](O)CN1CCc2ccccc2C1)c1cc(NC2COC2)ncn1 98.8
C=C1C(=O)O[C@H]2[C@H]1CC/C(C=Nc1c(N)cc(F)cc1Br)=C\CC[C@@]1(C)O[C@@H]21 109
c1ccc(-c2n(Cc3ccc4ccccc4n3)cc[n+]2Cc2ccc3ccccc3n2)cc1 26.6
COc1ccc(Cl)c([N+](=O)[O-])c1 104

O=c1c2ccccc2oc2ccc(OCCCCCCN3CCCCCC3)cc12 tested on HCC-2998 colon gave growth: 62.9

Lab entry: HCC-2998 colon assay, molecule O=C1c2ccccc2C(=O)c2c1oc1c2c(=O)[nH]c2ccc(Cl)cc21 , growth = 65.1

###

Test system: MALME-3M melanoma
Assay: NCI-60 one-dose screen, 48 h (100 = growth as untreated, 0 = no growth, -100 = all killed)
Settings: 10 µM unless noted
The panel holds about 83,000 compounds, 20% with a hit somewhere; the sample as a whole holds those more often. Activity calls are given as the source filed them. The calls were made as follows: active = growth percent below 10; inactive = the rest.
measured endpoint: growth

Some compounds with recorded growth:
compound	growth
N#Cc1ccc(Oc2ccc3ccc(=O)oc3c2)cc1	126% (inactive)
Cc1cc(C)c2nc(Nc3nc(C)c(C)c(=O)[nH]3)nc(C)c2c1	-6.48% (active)
COc1ccc(C(C)c2cc(OC)c(OC)c(OC)c2)cc1 (configuration not stated)	67.5% (inactive)
O=CN1N=C(c2ccc3c(c2)OCO3)CC1c1cccc(Nc2ccnc3cc(C(F)(F)F)ccc23)c1 (configuration not stated)	101% (inactive)
NC(=O)C(O)(c1ccccc1)c1ccccc1	113% (inactive)

Log: MALME-3M melanoma, compound CC(C)NS(=O)(=O)c1cccc(-c2ccc3c4c(n(CCCN(C)C)c(=O)c3c2)-c2ccccc2C4=O)c1 , growth = 91.6% (inactive)

Form: item CCOC(=O)/C(=C/c1c(-c2ccccc2)[nH]c2ccccc12)C(=O)c1ccc(Cl)cc1 ; test system MALME-3M melanoma; growth: 92.8% (inactive)

The value of growth recorded for CN(C)c1ccc(-c2ccc3[nH]c(=O)nc(-c4ccc(F)cc4)c3c2)cn1 when tested on MALME-3M melanoma reads 64.4% (inactive)

Measured growth for this entry CC1CCCN(CCCCCOc2ccc3oc4ccccc4c(=O)c3c2)C1 (configuration not stated) on MALME-3M melanoma: 4.45% (active)

For the compound CN(C)C1=NCCN1 , the measured growth on MALME-3M melanoma was 97.2% (inactive)

GET /values?item= O=c1nc(-c2ccccc2)c2cc(-c3ccc(N4CCCC4)nc3)ccc2[nH]1 &system= MALME-3M melanoma returns growth: 89.6% (inactive)

Value (growth, MALME-3M melanoma) for record C/C(=N\NC(=O)c1ccncc1)c1ccc(N)cc1 = 98.5% (inactive)

Given the compound O=C(CCCCCCCCC(=O)Nc1cccc(C2=NCCN2)c1)Nc1cccc(C2=NCCN2)c1 and test system MALME-3M melanoma, the measured growth is 69.8% (inactive)

###

System: LOX IMVI melanoma
Assay: NCI-60 one-dose screen, 48 h (100 = growth as untreated, 0 = no growth, -100 = all killed)
Conditions: 10 µM unless noted
This is part of a sample that, as a whole, favours compounds with a hit. Of some 83,000 tested, about 20% had one in any assay.
measured endpoint: growth (%)
Give the quantity in %, number only.

Please review the entries below; each comes with its answer.
compound	target system	unit info	growth
Cc1nnc(/N=C2\NC(=O)/C(=C/c3ccc(N(C)C)cc3)S2)s1	LOX IMVI melanoma	%	64.6
CC(C)C1=C[C@@]23CC[C@H]4[C@](C)(COCCC#N)CCC[C@]4(C)[C@H]2C[C@@H]1[C@@H]1[C@H]3[C@@H](OCCC#N)CC[C@@H]1OCCC#N	LOX IMVI melanoma	%	40.1
Cc1c(O)c(=O)ccn1-c1nc2ccccc2s1	LOX IMVI melanoma	%	86.7

The compound CC(=O)OC[C@]12CC[C@@H](c3cn(Cc4ccc(Cn5cc([C@@H]6CC[C@]7(COC(C)=O)CC[C@]8(C)[C@H](CC[C@@H]9[C@@]%10(C)CC[C@H](OC(C)=O)C(C)(C)[C@@H]%10CC[C@]98C)[C@@H]67)nn5)cc4)nn3)[C@@H]1[C@H]1CC[C@@H]3[C@@]4(C)CC[C@H](OC(C)=O)C(C)(C)[C@@H]4CC[C@@]3(C)[C@]1(C)CC2 showed growth equal to 97.3

In plain terms, CCCCCCCCCCCCCC1=NCC[N+]1(CCO)Cc1ccccc1 (stereo not given) has a documented growth of -92

So for COc1cc(-c2csc(NC(=O)Nc3cc(Cl)cc(Cl)c3)n2)cc(OC)c1OC , the logged growth turned out to be 6.77

The measured growth associated with NCCN1CCNCC1 reads 101

Reported growth ( COC(=O)c1cncc(C(=O)Nc2ccc(-n3cnc4ccccc43)cc2)c1 ) = 96.4

Notebook: Cc1nc(C)c(C)nc1C , growth read as 101

Looking up Nn1c(SCC(=O)Nc2ccc(Cl)cc2)nnc1-c1cc(F)c(Cl)cc1Cl , I found its growth recorded as 86

For record Cn1c2ccccc2c2c(OC(=O)c3ccccc3)c3c(nc21)-c1ccccc1C3 the listed growth is 88.3

Looking up C=C1C(=O)O[C@H]2[C@H]1CC/C(C=Nc1c(N)cc(C(F)(F)F)cc1Br)=C\CC[C@@]1(C)O[C@@H]21 , I see its growth listed as -74.4

The value of growth measured for the compound C=C(C)[C@@H]1CC[C@]2(C(N)=O)CC[C@]3(C)[C@H](CC[C@@H]4[C@@]5(C)CCCNC(C)(C)[C@@H]5CC[C@]43C)[C@@H]12 turned out to be 76.9

Notebook: CCCCn1c(=O)c(/C=C/C(=O)/C=C/c2cc3ccccc3n(CCCC)c2=O)cc2ccccc21 , growth read as -80.3

Looking up CCCNc1nc(C)[nH]c(=O)c1S , I see its growth listed as 91

Item: [2H]c1nc(Nc2ncc3cc(C(=O)N(C)C)n(C4CCCC4)c3n2)c([2H])c([2H])c1N1C([2H])([2H])C([2H])([2H])NC([2H])([2H])C1([2H])[2H] | growth: 40.2

Sure, the documented growth for Cc1cc(NC(=O)CNc2nc(Oc3ccc(F)cc3)nc(-c3ccc(F)cc3)n2)ccc1Cl is 96.1

Entry under test: O=C1CCc2ccccc2N1 . Its growth was 94.4

growth for COc1ccc(C(C)c2cc(OC)c(OC)c(OC)c2)cc1 (stereo not given) is 26.1

Record COc1ccc(Cl)c([N+](=O)[O-])c1 , field growth: 97.2

###

Test system: SF-295 CNS
Assay: NCI-60 one-dose screen, 48 h
Conditions: 10 µM unless noted
Compounds without any hit were thinned out: in the full panel of roughly 83,000, 20% have a hit. Activity calls are given as the source filed them. The calls were made as follows: active = growth percent below 10; inactive = the rest.
Write down the outcome that applies. Available outcomes: yes (1) = active, no (0) = inactive

Study these solved cases before continuing.
molecule	category
Cc1ccc(CS/C(=C\c2ccc([N+](=O)[O-])cc2)C(=O)c2ccc(F)cc2)cc1	no (0)
COc1ccc2oc(=O)cc(-c3c(C#N)c(N)n4nc(N)c(C#N)c4c3C#N)c2c1	no (0)
COc1cc2c(cc1OCCCOc1cc3c(cc1OC)C(=O)N1CC(F)(F)C[C@H]1C=N3)N=C[C@@H]1CC(F)(F)CN1C2=O	yes (1)
COc1ccc2nc(-c3ccc(Cl)cc3)cc(-c3nnc(SC/C(=N/O)c4ccccc4)o3)c2c1	no (0)
CCOC(=O)c1ccc(Nc2ncnc3ccc(NC(=O)c4ccccc4)cc23)cc1	no (0)
Oc1ccc(CNNc2ccnc3c(O)cccc23)c2cccnc12	no (0)

# lookup: test call for C(=C\c1cn(-c2ccccc2)nc1-c1ccccc1)/c1nnc(-c2c[nH]c3ccccc23)o1
no (0)

Which outcome was assigned to O=C(/C(=C/c1ccc([N+](=O)[O-])cc1)SCc1ccc(F)cc1)c1ccc(Cl)cc1 in this test?
no (0)

GET /call?item= C=C(C)[C@@H]1CC[C@]2(C(=O)O)CC[C@]3(C)[C@H](CC[C@@H]4[C@@]5(C)C[C@@H](CC#Cc6ccc(Cl)cc6)C(=O)C(C)(C)[C@@H]5CC[C@]43C)[C@@H]12 returns the recorded outcome of this test.
no (0)

Per the records of this test, what outcome belongs to CCOc1ccccc1C(=O)/C=C/c1cc2ccccc2[nH]c1=O ?
yes (1)

For this molecule, state the assay outcome: NCCN1CCNCC1
no (0)

What is the recorded call for this molecule in the test? OCCNc1nc(NCCO)nc(Nc2ccc(C3=NN(c4cc(Cl)cc(Cl)c4)C(c4ccc(C(F)(F)F)cc4)C3)cc2)n1 (stereo not drawn)
yes (1)

Record lookup: outcome of this test for COc1ccc2c(c1)Oc1nc(N)c(C#N)c(N)c1C2Sc1ccc(SC)cc1 (stereo not drawn) ?
no (0)
